molecular target: Sphingosine 1-phosphate receptor 1 (Homo sapiens, UniProt P21453); assay: Binding Assay: Membranes were prepared from CHO cells expressing human S1P1. Cells pellets (1x10^9 cells/pellet) were suspended in buffer containing 20 mM HEPES (4-(2-hydroxyethyl)-1-piperazineethanesulfonic acid), pH 7.5, 50 mM NaCl, 2 mM EDTA (Ethylenediaminetetraacetic acid) and Protease Inhibitor cocktail (Roche), and disrupted on ice using the Polytron homogenizer. The homogenate was centrifuged at 20,000 rpm (48,000 g) and the supernatant was discarded. The membrane pellets were resuspended in buffer containing 50 mM HEPES, pH 7.5, 100 mM NaCl, 1 mM MgCl2, 2 mM EDTA and stored in aliquots at -80° C. after protein concentration determination.Membranes (2 ug/well) and 0.03 nM final concentration of 33P-S1P ligand (1 mCi/ml, Perkin elmer or American Radiolabeled Chemicals) diluted in assay buffer (50 mM HEPES, pH7.4, 5 mM MgCl2, 1 mM CaCl2, 0.5% fatty acid free BSA (bovine serum albumin), 1 mM NaF) were added to the compound plates (384 Falcon v-bottom plate (0.5 ul/well in a 11 point, 3-fold dilution). Binding was performed for 45 minutes at room temperature, terminated by collecting the membranes onto 384-well Millipore FB filter plates, and radioactivity was measured by TOPCOUNT. The competition data of the test compounds over a range of concentrations was plotted as percentage inhibition of radioligand specific binding.
Sequence (P21453 whole entry): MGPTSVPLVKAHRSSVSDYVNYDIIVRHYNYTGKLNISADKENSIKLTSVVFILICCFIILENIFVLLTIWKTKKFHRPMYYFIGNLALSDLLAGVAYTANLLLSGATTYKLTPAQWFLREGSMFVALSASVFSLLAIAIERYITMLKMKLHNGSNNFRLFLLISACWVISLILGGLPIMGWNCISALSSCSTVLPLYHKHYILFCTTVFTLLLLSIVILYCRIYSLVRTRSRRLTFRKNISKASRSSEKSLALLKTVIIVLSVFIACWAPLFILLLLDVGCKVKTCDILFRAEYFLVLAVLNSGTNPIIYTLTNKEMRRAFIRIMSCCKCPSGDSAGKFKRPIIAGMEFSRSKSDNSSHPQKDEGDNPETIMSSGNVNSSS
Quantity name: IC50

Ask: Lookup: IC50 / Sphingosine 1-phosphate receptor 1 (Homo sapiens, UniProt P21453) / `CCCCCC[C@H]1Cc2ccc([C@@H]3CC[C@](N)(COP(=O)(O)O)C3)cc2CO1`
Result: < 10 nM
